Numbers sourced from patent US8574831B2.

# Test system: HIV with mutations in the HIV protease sequence
# Protocol Notes: Phenotypic fold resistance to protease inhibitors, protease mutations 84A/84L/84C/54M/54L/54V in a background (Examples 8-13)
# Type: cell-based, HIV-1
# Condition Context: Table 9 #19, protease genotype 10I + 46I + 71V + 77I + 84V
Measured Property: mean fold increase in resistance (fold)

> print(dat)
                                  structure  measured.number
1  CC(C)c1nc(CN(C)C(=O)N[C@H](C(=O)N[C@@H](Cc2ccccc2)C[C@H](O)[C@H](Cc2ccccc2)NC(=O)OCc2cncs2)C(C)C)cs1              3.1
2  CC(C)CN(C[C@@H](O)[C@H](Cc1ccccc1)NC(=O)O[C@H]1CCOC1)S(=O)(=O)c1ccc(N)cc1              1.4
3  Cc1c(O)cccc1C(=O)N[C@@H](CSc1ccccc1)[C@H](O)CN1C[C@H]2CCCC[C@H]2C[C@H]1C(=O)NC(C)(C)C              2.8
4  CC(C)(C)NC(=O)[C@@H]1C[C@@H]2CCCC[C@@H]2CN1C[C@@H](O)[C@H](Cc1ccccc1)NC(=O)[C@H](CC(N)=O)NC(=O)c1ccc2ccccc2n1              2.5
5  CC(C)(C)NC(=O)[C@@H]1CN(Cc2cccnc2)CCN1C[C@@H](O)C[C@@H](Cc1ccccc1)C(=O)N[C@H]1c2ccccc2C[C@H]1O              2.2

* * *

# Tested on: HIV with mutations in the HIV protease sequence
# Protocol Notes: Phenotypic fold resistance to protease inhibitors, protease mutations 84A/84L/84C/54M/54L/54V in a background (Examples 8-13)
# Type: cell-based, HIV-1
# Condition Context: Table 13, V021667, genotype 10I
Decide using Fold change in IC50: a value greater than or equal to 1 fold is fulfilled, a smaller one is not fulfilled.

> print(dat)
                                  structure                               system.name    label.value
1  CC(C)(C)NC(=O)[C@@H]1CN(Cc2cccnc2)CCN1C[C@@H](O)C[C@@H](Cc1ccccc1)C(=O)N[C@H]1c2ccccc2C[C@H]1O  HIV with mutations in the HIV protease sequence  not fulfilled
2  CC(C)c1nc(CN(C)C(=O)N[C@H](C(=O)N[C@@H](Cc2ccccc2)C[C@H](O)[C@H](Cc2ccccc2)NC(=O)OCc2cncs2)C(C)C)cs1  HIV with mutations in the HIV protease sequence      fulfilled
3  CC(C)(C)NC(=O)[C@@H]1C[C@@H]2CCCC[C@@H]2CN1C[C@@H](O)[C@H](Cc1ccccc1)NC(=O)[C@H](CC(N)=O)NC(=O)c1ccc2ccccc2n1  HIV with mutations in the HIV protease sequence  not fulfilled
4  CC(C)CN(C[C@@H](O)[C@H](Cc1ccccc1)NC(=O)O[C@H]1CCOC1)S(=O)(=O)c1ccc(N)cc1  HIV with mutations in the HIV protease sequence      fulfilled

* * *

# System: HIV with mutations in the HIV protease sequence
# Protocol Notes: Phenotypic fold resistance to protease inhibitors, protease mutations 84A/84L/84C/54M/54L/54V in a background (Examples 8-13)
# Assay type: cell-based, HIV-1
# Condition Context: Table 12, V052945, genotype 77I + 90M
Fold change in IC50 of 2 fold or higher: 1. Under 2 fold: -1.

> print(dat)
                                  structure  label.value
1  CC(C)c1nc(CN(C)C(=O)N[C@H](C(=O)N[C@@H](Cc2ccccc2)C[C@H](O)[C@H](Cc2ccccc2)NC(=O)OCc2cncs2)C(C)C)cs1           -1
2  CC(C)(C)NC(=O)[C@@H]1CN(Cc2cccnc2)CCN1C[C@@H](O)C[C@@H](Cc1ccccc1)C(=O)N[C@H]1c2ccccc2C[C@H]1O           -1
3  CC(C)(C)NC(=O)[C@@H]1C[C@@H]2CCCC[C@@H]2CN1C[C@@H](O)[C@H](Cc1ccccc1)NC(=O)[C@H](CC(N)=O)NC(=O)c1ccc2ccccc2n1           -1
4  CC(C)CN(C[C@@H](O)[C@H](Cc1ccccc1)NC(=O)O[C@H]1CCOC1)S(=O)(=O)c1ccc(N)cc1           -1
5  Cc1c(O)cccc1C(=O)N[C@@H](CSc1ccccc1)[C@H](O)CN1C[C@H]2CCCC[C@H]2C[C@H]1C(=O)NC(C)(C)C            1

* * *

# Tested on: HIV with mutations in the HIV protease sequence
# Protocol Notes: Phenotypic fold resistance to protease inhibitors, protease mutations 84A/84L/84C/54M/54L/54V in a background (Examples 8-13)
# Format: cell-based, HIV-1
# Condition Context: Table 13, V052953, genotype 10I + 33F + 77I

Compound	Units Symbol	Fold change in IC50
Cc1c(O)cccc1C(=O)N[C@@H](CSc1ccccc1)[C@H](O)CN1C[C@H]2CCCC[C@H]2C[C@H]1C(=O)NC(C)(C)C [Nelfinavir, nelfinavir]	fold	0.9
CC(C)(C)NC(=O)[C@@H]1C[C@@H]2CCCC[C@@H]2CN1C[C@@H](O)[C@H](Cc1ccccc1)NC(=O)[C@H](CC(N)=O)NC(=O)c1ccc2ccccc2n1 [Saquinavir, saquinavir]	fold	1.2
CC(C)CN(C[C@@H](O)[C@H](Cc1ccccc1)NC(=O)O[C@H]1CCOC1)S(=O)(=O)c1ccc(N)cc1 [Amprenavir, amprenavir]	fold	1.5
CC(C)c1nc(CN(C)C(=O)N[C@H](C(=O)N[C@@H](Cc2ccccc2)C[C@H](O)[C@H](Cc2ccccc2)NC(=O)OCc2cncs2)C(C)C)cs1 [Ritonavir, ritonavir]	fold	1.1
CC(C)(C)NC(=O)[C@@H]1CN(Cc2cccnc2)CCN1C[C@@H](O)C[C@@H](Cc1ccccc1)C(=O)N[C@H]1c2ccccc2C[C@H]1O [Indinavir, indinavir]	fold	0.8

* * *

# Test system: HIV with mutations in the HIV protease sequence
# Protocol Notes: Phenotypic fold resistance to protease inhibitors, protease mutations 84A/84L/84C/54M/54L/54V in a background (Examples 8-13)
# Format: cell-based, HIV-1
# Condition Context: Virco ID V052944; genotype 10I + 90M; vs mean IC50 of wild type laboratory HIV strain

Molecule	System Name	Fold change in IC50, fold
CC(C)(C)NC(=O)[C@@H]1C[C@@H]2CCCC[C@@H]2CN1C[C@@H](O)[C@H](Cc1ccccc1)NC(=O)[C@H](CC(N)=O)NC(=O)c1ccc2ccccc2n1 [Saquinavir, saquinavir]	HIV with mutations in the HIV protease sequence	0.7
CC(C)c1nc(CN(C)C(=O)N[C@H](C(=O)N[C@@H](Cc2ccccc2)C[C@H](O)[C@H](Cc2ccccc2)NC(=O)OCc2cncs2)C(C)C)cs1 [Ritonavir, ritonavir]	HIV with mutations in the HIV protease sequence	1.5
Cc1c(O)cccc1C(=O)N[C@@H](CSc1ccccc1)[C@H](O)CN1C[C@H]2CCCC[C@H]2C[C@H]1C(=O)NC(C)(C)C [Nelfinavir, nelfinavir]	HIV with mutations in the HIV protease sequence	1.4
CC(C)CN(C[C@@H](O)[C@H](Cc1ccccc1)NC(=O)O[C@H]1CCOC1)S(=O)(=O)c1ccc(N)cc1 [Amprenavir, amprenavir]	HIV with mutations in the HIV protease sequence	0.7
CC(C)(C)NC(=O)[C@@H]1CN(Cc2cccnc2)CCN1C[C@@H](O)C[C@@H](Cc1ccccc1)C(=O)N[C@H]1c2ccccc2C[C@H]1O [Indinavir, indinavir]	HIV with mutations in the HIV protease sequence	0.5

* * *

# Tested on: HIV with mutations in the HIV protease sequence
# Protocol Notes: Phenotypic fold resistance to protease inhibitors, protease mutations 84A/84L/84C/54M/54L/54V in a background (Examples 8-13)
# Assay type: cell-based, HIV-1
# Condition Context: Table 10 #1, protease genotype 10I + 36I + 71V
Measured mean fold increase in resistance accompanies every entry in the list below.

Molecule	mean fold increase in resistance / fold
CC(C)(C)NC(=O)[C@@H]1C[C@@H]2CCCC[C@@H]2CN1C[C@@H](O)[C@H](Cc1ccccc1)NC(=O)[C@H](CC(N)=O)NC(=O)c1ccc2ccccc2n1 [Saquinavir, saquinavir]	1.6
CC(C)c1nc(CN(C)C(=O)N[C@H](C(=O)N[C@@H](Cc2ccccc2)C[C@H](O)[C@H](Cc2ccccc2)NC(=O)OCc2cncs2)C(C)C)cs1 [Ritonavir, ritonavir]	1.2
CC(C)(C)NC(=O)[C@@H]1CN(Cc2cccnc2)CCN1C[C@@H](O)C[C@@H](Cc1ccccc1)C(=O)N[C@H]1c2ccccc2C[C@H]1O [Indinavir, indinavir]	1.4
CC(C)CN(C[C@@H](O)[C@H](Cc1ccccc1)NC(=O)O[C@H]1CCOC1)S(=O)(=O)c1ccc(N)cc1 [Amprenavir, amprenavir]	1.0
Cc1c(O)cccc1C(=O)N[C@@H](CSc1ccccc1)[C@H](O)CN1C[C@H]2CCCC[C@H]2C[C@H]1C(=O)NC(C)(C)C [Nelfinavir, nelfinavir]	1.5
